Can you tell me TGI for the items I'm about to list?
Test system: MOLT-4 leukemia
EXPERIMENTAL DETAILS: NCI tumour cell line growth inhibition, 48 h

Please review the entries below; each comes with its answer.
>  <COMPOUND>
CNC(C)(C)Cc1ccc(Cl)cc1

>  <MEASUREMENT NAME>
TGI

>  <RESULT VALUE>
> 100 µM

$$$$
>  <COMPOUND>
N#CC(C#N)=C/C=C(\Cl)c1ccc(Cl)cc1

>  <MEASUREMENT NAME>
TGI

>  <RESULT VALUE>
> 100 µM

$$$$

Hey, quick one: what's TGI for each of these?
1. CC(=O)OCc1c2ccccc2c(C)c2c1cc(F)c1ccccc12
2. CCN1C(=O)N(CC)C2C1NN=c1s/c(=C\c3ccc(Cl)cc3Cl)c(=O)n12 (centres undefined)
3. COc1cc(/C=C/C(=O)c2c(C)nc3ccccc3c2/C=C/c2ccccc2)cc(OC)c1OC
4. Cn1c(=O)c2[nH]c(N/N=N/c3nncs3)nc2n(C)c1=O
5. CC1=NNC(=O)C1C1C(=O)NN=C(c2c[nH]c3ccccc23)C1Br (centres undefined)
6. CN(C)CC(O)c1ccc(Cl)c2ccccc12 (centres undefined)
7. CC(=O)c1c(O)c(C)c(O)c(Cc2c(O)c3c(c(C(=O)/C=C/c4ccccc4)c2O)OC(C)(C)C=C3)c1O

["32.6 µM", "> 64.5 µM", "8.61 µM", "> 100 µM", "80.3 µM", "55.8 µM", "16.8 µM"]

Hey, quick one: what's TGI for each of these?
1. IC[P+]1(c2ccccc2)CCCC1
2. S=C1c2ccc(Cl)cc2-n2cnnc2C2CSCN12 (centres undefined)
3. CN1CCC(CNc2cc(C3(C(=O)Nc4cc(C(=O)Nc5ccc(Cl)c(C(F)(F)F)c5)ccc4F)CC3)ncn2)CC1
4. COc1cccc(N2C(=O)CSC2c2cccc(Oc3ccccc3)c2)c1 (centres undefined)
5. C[C@H](c1ccccc1)N1C(=O)[C@@H](O)[C@H]1[C@H](CO)OCc1ccccc1
6. FC(F)(F)c1cccc(-c2nc3nc(Cl)c(Cl)nc3[nH]2)c1
7. C[C@@H]1OC(=O)C[C@H]2CC(=O)N(CCC3CN(C(=O)OCc4ccccc4)c4ccccc43)C[C@@H]21 (some centres undefined)

1. > 100 µM
2. > 100 µM
3. 6.09 µM
4. 28.4 µM
5. > 100 µM
6. 10.4 µM
7. > 100 µM

Hey, quick one: what's TGI for each of these?
1. CCOC(=O)Cc1nc2ccc3c(c2[nH]c1=O)C(=O)c1ccccc1C3=O
2. COc1cc(C)ccc1C(=O)c1ccc(C)cc1OC
3. C[C@@H](NC(C#N)c1ccco1)c1ccccc1 (some centres undefined)
4. O=C(/C=C/c1ccccc1)Oc1cccc2cccnc12
5. CN(C)CCNC(=O)Cn1ccc(=O)c2cc([N+](=O)[O-])ccc21
6. O=C1C[C@H]2CCCN2[C@@H](c2ccccc2)C1
7. Cc1ccc(C(=N)c2ccccc2Cc2cccc3ccccc23)c2ccccc12
8. Nc1ncn([C@@H]2S[C@H](CO)[C@@H](O)[C@@H]2F)c(=O)n1

1. 54.2 µM
2. > 100 µM
3. > 100 µM
4. > 51.1 µM
5. > 100 µM
6. > 100 µM
7. > 100 µM
8. > 100 µM
